molecular target: RhaR (Escherichia coli, UniProt P09378); experiment: EMSA, inhibition of DNA binding by purified protein
Sequence (P09378 whole entry): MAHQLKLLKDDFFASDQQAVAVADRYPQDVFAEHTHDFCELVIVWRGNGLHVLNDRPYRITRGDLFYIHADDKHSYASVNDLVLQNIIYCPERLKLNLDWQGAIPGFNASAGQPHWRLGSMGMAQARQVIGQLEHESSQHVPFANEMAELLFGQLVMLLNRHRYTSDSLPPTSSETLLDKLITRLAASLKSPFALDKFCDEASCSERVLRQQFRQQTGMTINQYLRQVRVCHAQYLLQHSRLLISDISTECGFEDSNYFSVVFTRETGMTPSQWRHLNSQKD
measured-attribute: IC50

Lookup: Give IC50 for CCCCN1C=C(c2ccc3ccccc3n2)C(C[N+](=O)[O-])c2ccccc21 (stereo not shown)
Found: ~140 µM

* * *

molecular target: RhaS (Escherichia coli, UniProt P09377, L201R); experiment: EMSA, inhibition of DNA binding by purified protein
Sequence (P09377 whole entry L201R): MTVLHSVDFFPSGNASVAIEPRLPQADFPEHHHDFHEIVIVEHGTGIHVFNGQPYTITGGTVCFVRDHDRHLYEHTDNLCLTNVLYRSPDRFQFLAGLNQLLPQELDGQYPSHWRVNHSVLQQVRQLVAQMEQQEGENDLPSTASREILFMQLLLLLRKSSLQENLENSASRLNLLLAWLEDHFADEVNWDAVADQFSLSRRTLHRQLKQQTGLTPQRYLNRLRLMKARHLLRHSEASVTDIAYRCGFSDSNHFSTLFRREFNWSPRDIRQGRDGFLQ
pIC50: −log10 of the molar value.
measured-attribute: pIC50

Lookup: Given CCCCN1C=C(c2ccc3ccccc3n2)C(C[N+](=O)[O-])c2ccccc21 (stereo not shown) [OSSL_051168] , respond with its pIC50.
Found: ~4.15

Origin of measurements: paper PMC3663881
